Tested on: RPMI-8226
run_description: NCI tumour cell line growth inhibition, 48 h
The source made the active and inactive calls. No stated cut-off is given here; in the data, active = GI50 up to about 1.1 µM and inactive = higher.
Outcomes: 1 (active), -1 (inactive)

| molecule | class_label |
| --- | --- |
| O=C1O[C@]2(c3ccccc3)C(c3ccccc3)=C[C@]2(C(=O)c2ccccc2)C1=O | -1 |
| CCCCCc1cc2cc3c(c(O)c2c(=O)[nH]1)C1(CC3)C(=O)c2c(O)c3c(c(O)c2C1=O)C(=O)C(OC)=CC3=O (stereo unspecified) | 1 |
| COC(=O)c1c2c(cc3c1CC1(C3)Cc3cc4c(c(C(C)=O)c3C1)CCC4)C=CC2 (stereo unspecified) | -1 |
| O=C(O)C[n+]1cn(NC(=O)Cc2ccccc2)cn1 | 1 |
| N#CC(C(=O)CCC(=O)Nc1ccc(Cl)cc1)c1ccc(Cl)cc1 (stereo unspecified) | -1 |
| O=C(O)C[C@@H](Cl)[C@H](NC(=O)OCc1ccccc1)C(=O)O | -1 |
| COCOCC1CCCN1CN1CCC[C@H]1COCOC (stereo partly specified) | -1 |
| CCOC(=O)C(=O)C1C(=O)Nc2ccccc21 (stereo unspecified) | -1 |
| CN(C)/C=N/c1ccc2[nH]c3ccccc3c2c1 | -1 |
| CCOc1cc2oc(C)cc(=O)c2c(OC)c1/C=N/c1ccc(Cn2c(C)nc3ccccc32)cc1 | -1 |
| N#CC1C(=O)SC2c3ccccc3C(=O)c3ccccc3C12 (stereo unspecified) | -1 |
| Clc1ccc(N/N=C(\c2ccccc2)c2ccccn2)nc1 | 1 |
| CCOC(=O)C1(C(=O)OCC)C[C@@H](C)[C@@H](O)C1 | -1 |
| O=[N+]([O-])/C(C(Cl)=C(Cl)Cl)=C(/Nc1ccccc1)SCc1ccccc1 | -1 |
| CC1CC(C)CC(C)C(O)/C(C#N)=C/C=C/CC(C2CCCC2C(=O)O)OC(=O)CC(O)C(C)C1 (stereo unspecified) | 1 |
| CC#CC(=O)Nc1ccccc1CC(c1c[nH]c2ccccc12)c1c[nH]c2ccccc12 | -1 |
| C[C@]12CC[C@@H]3c4ccc(OP(=O)(O)O)cc4CC[C@H]3[C@@H]1CCC2=O | -1 |
| CN(C)c1ccc(/C=C(\NC(=O)c2ccccc2)C(=O)NC(CCC(=O)O)C(=O)O)cc1 (stereo unspecified) | -1 |
| COc1cc2c(cc1OCCCCCOc1cc3c(cc1OC)C(=O)N1CCC[C@H]1C(=O)N3)N=C[C@@H]1CCCN1C2=O | 1 |
| COc1cc2c(c(OC)c1OC)-c1ccc(SC)c(=O)cc1C(CO)C2 (stereo unspecified) | 1 |
| Cc1cc(C(=O)CSC(=S)SC(C)(C)C)ccc1Cl | -1 |
| O=C1/C(=C/c2ccc([N+](=O)[O-])cc2)Oc2cc(O)ccc21 | -1 |
| COc1ccc(C(=O)C(c2ccc(OC)cc2)C2OC(=O)C(Cl)=C2Cl)cc1 (stereo unspecified) | -1 |
| CC(=O)/N=C1/N(/C=C2\C(=O)Oc3ccccc3C2=O)C(=O)/C(=C/c2cccc(Cl)c2Cl)N1C | -1 |
| CN(C)CCNC(=O)c1ccc(Cl)c2ccc(-c3ccccc3)nc12 | -1 |
| O=C(O)c1ccccc1SCc1cccc2c(=O)c3ccc(Cl)cc3oc12 | -1 |
| O=C(ON=c1c2ccccc2ccc2ccccc12)c1ccccc1 | -1 |
| C=CCOC1=C2CC[C@H](O)[C@@]2(C)CCC1=O | -1 |
| CCCCCCN(C(=O)Oc1ccccc1)C(C#N)c1ccccc1 (stereo unspecified) | -1 |
| COc1cc(C2C3=C(COC3=O)Oc3cc4c(cc32)OCO4)cc(OC)c1O (stereo unspecified) | 1 |
| CCn1cc(C(=O)O)c(=O)c2cc3c(cc21)S(=O)(=O)CC3 | -1 |
| S=C1NC2=C(COc3ccccc32)C(c2ccc(Cl)cc2)N1 (stereo unspecified) | -1 |
| Clc1ccc(OCCSCCCCCCCCCCSCCOc2ccc(Cl)cc2)cc1 | -1 |
| Cc1ccc(NC(=S)C#N)c(C)c1 | -1 |
| OC(c1ccc(F)cc1)(c1ccc(F)cc1)C1CC1 | -1 |
| N#CC12Cc3ccc4c(c3-c3cccc(c31)CCN2C(=O)c1ccccc1)OCO4 (stereo unspecified) | -1 |
| Nc1ccc(Sc2c3ccccc3nc3ccccc23)cc1 | -1 |
| CC(=O)OCC1OC(n2c(C)c(/N=N/c3ccc(Cl)cc3)c(C)c(C#N)c2=S)C(OC(C)=O)C(OC(C)=O)C1OC(C)=O (stereo unspecified) | -1 |
| CCN(CC)CCOC(=O)Cc1cccc2c(=O)cc(-c3ccccc3)oc12 | -1 |
| S=C(Nc1cccc(C2(N3CCCCC3)CCCCC2)c1)Nc1cccc(C2(N3CCCCC3)CCCCC2)c1 | -1 |
| CCc1nc(N)nc(N)c1-c1ccc(N2CCNCC2)cc1 | -1 |
